- target entity: human mGluR2 receptor (Homo sapiens)
- Construct: expressed in transfected cells; host or cells: CHO cells (membrane preparation)
- experiment: [35S]GTPγS binding assay (GTPγS-PAM): positive allosteric modulation in presence of glutamate at EC25, membranes from transfected CHO cells
- Format: biochemical
- test conditions: in presence of mGluR2 agonist glutamate at predetermined EC25 concentration, averages of duplicate values of 11-concentration response curves, read-out: GTPgS - hR2 PAM pEC50 (converted)
log10(EC50) reference
In plain terms, each number is the log10 of measured EC50 in nM.

# compound, log10(EC50)
records = [
    ("CC(C)CCn1ccc(N2CCN(Cc3ccc4c(c3)OCO4)CC2)c(C#N)c1=O", 2.80),
    ("COc1cc(-c2ccn(CCC(C)C)c(=O)c2C#N)ccc1OCc1ccccc1", 2.50),
    ("CC(C)CCn1ccc(-c2ccc(OC(C)C)c(Cl)c2)c(C#N)c1=O", 1.80),
    ("CC(C)CCn1ccc(N[C@@H]2C[C@H]2c2ccccc2)c(C#N)c1=O (racemic)", 3.30),
    ("CC(C)CCn1ccc(N2CCC(c3coc4cc(F)ccc34)CC2)c(C#N)c1=O", 1.60),
]

Return reported log10(EC50); argument: CC(C)CCn1ccc(N2CCCC(Nc3ccccc3)C2)c(C#N)c1=O (stereo not shown)
3.70

Return reported log10(EC50); argument: COc1cc(-c2ccn(CCC(C)C)c(=O)c2C#N)ccc1O
3.80

Return reported log10(EC50); argument: CCCCn1ccc(-c2ccc(Oc3ccncc3)cc2F)c(C#N)c1=O
2.70

Return reported log10(EC50); argument: CC(=O)N(C)Cc1ccc(-c2ccn(CCC(C)C)c(=O)c2C#N)cc1
3.60

Return reported log10(EC50); argument: CC(=O)NCCOc1ccc(-c2ccn(CCC(C)C)c(=O)c2C#N)cc1
3.50

Return reported log10(EC50); argument: N#Cc1c(-c2cccs2)ccn(CCCc2ccccc2)c1=O
3.30

Return reported log10(EC50); argument: CC(C)CCn1ccc(-c2ccc(N)cc2)c(C#N)c1=O
2.90

Return reported log10(EC50); argument: CN(Cc1cccc(C(F)(F)F)c1)C1CCN(c2ccn(Cc3ccc(F)cc3)c(=O)c2C#N)CC1
2.40

* * *

- target entity: human mGluR2 receptor (Homo sapiens)
- Construct: expressed in transfected cells; host or cells: CHO cells (membrane preparation)
- experiment: [35S]GTPγS binding assay (GTPγS-PAM): positive allosteric modulation in presence of glutamate at EC25, membranes from transfected CHO cells
- Type: biochemical
- test conditions: in presence of mGluR2 agonist glutamate at predetermined EC25 concentration, averages of duplicate values of 11-concentration response curves, read-out: GTPgS - hR2 PAM pEC50 (converted)
EC50 reference
Give the number; nM is assumed, so skip it.

Return reported EC50; argument: CC(C)CCn1ccc(-c2cccc(O)c2)c(C#N)c1=O [1-096]
1580

Return reported EC50; argument: COc1cccc(COc2ccc(-c3ccn(CCC(C)C)c(=O)c3C#N)cc2)c1 [1-144]
63.1

Return reported EC50; argument: CC(C)CCn1ccc(-c2ccc(CN(C)Cc3ccc(F)cc3)cc2)c(C#N)c1=O [1-197]
251

Return reported EC50; argument: CC(C)CCn1ccc(-c2ccc(N(C)Cc3ccccc3)cc2)c(C#N)c1=O [1-196]
39.8

Return reported EC50; argument: CC(C)CCn1ccc(OCc2ccc(CN3CCOCC3)cc2)c(C#N)c1=O [1-292]
1260

Return reported EC50; argument: Cc1onc(-c2ccccc2)c1COc1ccn(CCC(C)C)c(=O)c1C#N [5-045]
3980

Return reported EC50; argument: CC(C)CCn1ccc(-c2ccc(NCc3cccc(C#N)c3)cc2)c(C#N)c1=O [1-204]
25.1

Return reported EC50; argument: COC1CCN(c2ccc(-c3ccn(CCC(C)C)c(=O)c3C#N)cc2)CC1 [1-221]
398

Return reported EC50; argument: CC(C)CCn1ccc(N2CCN(Cc3ccccc3)CC2C)c(C#N)c1=O (stereo not shown) [2-021]
1260

Return reported EC50; argument: CC(=O)N1CCc2cc(-c3ccn(CCC(C)C)c(=O)c3C#N)ccc21 [5-015]
1580

* * *

measured attribute: melting point (°C)
Give the number; °C is assumed, so skip it.

Reference set, count: 2
# compound, result unit, melting point
records = [
    ("CC(C)CCn1ccc(N2CCC(n3ccc4cc(F)ccc43)CC2)c(C#N)c1=O [4-037]", "°C", 78),
    ("CC(=O)NCc1cccc(-c2ccn(CCC(C)C)c(=O)c2C#N)c1 [1-178]", "°C", 157),
]

Return reported melting point; argument: CC(C)CCn1ccc(-c2ccc(OCC(F)F)c(Cl)c2)c(C#N)c1=O [1-122]
131

Return reported melting point; argument: CC(C)CCn1ccc(-c2ccc(Cl)cc2)c(C#N)c1=O [1-091]
137

Return reported melting point; argument: CC(C)CCn1ccc(N(C)C2CCN(Cc3cccc(C(F)(F)F)c3)CC2)c(C#N)c1=O [3-006]
131

* * *

melting point reference
Give the number; °C is assumed, so skip it.

Reference set, count: 5
# compound, reported value
rows = [
    ("CC(C)CCn1ccc(-c2ccc(CN(C)Cc3ccncc3)cc2)c(C#N)c1=O [1-211]", 142),
    ("CC(C)CCn1ccc(N2CCC(N(C)c3cccc(C(F)(F)F)c3)CC2)c(C#N)c1=O [4-031]", 141),
    ("CC(=O)Nc1ccc(-c2ccn(CCC(C)C)c(=O)c2C#N)cc1 [1-176]", 198),
    ("N#Cc1c(-c2ccc3[nH]ccc3c2)ccn(Cc2ccc(OC(F)(F)F)cc2)c1=O [5-051]", 166),
    ("N#Cc1c(-c2cccs2)ccn(Cc2ccc(C(F)(F)F)nc2)c1=O [1-046]", 185),
]

Return reported melting point; argument: N#Cc1c(N2CCN(Cc3cc(F)cc(C(F)(F)F)c3)CC2)ccn(CC2CC2)c1=O [2-038]
140

* * *

- target entity: human mGluR2 receptor (Homo sapiens, UniProt Q14416)
- Construct: expressed in transfected cells; host or cells: CHO cells (membrane preparation)
- Sequence (Q14416 19-872): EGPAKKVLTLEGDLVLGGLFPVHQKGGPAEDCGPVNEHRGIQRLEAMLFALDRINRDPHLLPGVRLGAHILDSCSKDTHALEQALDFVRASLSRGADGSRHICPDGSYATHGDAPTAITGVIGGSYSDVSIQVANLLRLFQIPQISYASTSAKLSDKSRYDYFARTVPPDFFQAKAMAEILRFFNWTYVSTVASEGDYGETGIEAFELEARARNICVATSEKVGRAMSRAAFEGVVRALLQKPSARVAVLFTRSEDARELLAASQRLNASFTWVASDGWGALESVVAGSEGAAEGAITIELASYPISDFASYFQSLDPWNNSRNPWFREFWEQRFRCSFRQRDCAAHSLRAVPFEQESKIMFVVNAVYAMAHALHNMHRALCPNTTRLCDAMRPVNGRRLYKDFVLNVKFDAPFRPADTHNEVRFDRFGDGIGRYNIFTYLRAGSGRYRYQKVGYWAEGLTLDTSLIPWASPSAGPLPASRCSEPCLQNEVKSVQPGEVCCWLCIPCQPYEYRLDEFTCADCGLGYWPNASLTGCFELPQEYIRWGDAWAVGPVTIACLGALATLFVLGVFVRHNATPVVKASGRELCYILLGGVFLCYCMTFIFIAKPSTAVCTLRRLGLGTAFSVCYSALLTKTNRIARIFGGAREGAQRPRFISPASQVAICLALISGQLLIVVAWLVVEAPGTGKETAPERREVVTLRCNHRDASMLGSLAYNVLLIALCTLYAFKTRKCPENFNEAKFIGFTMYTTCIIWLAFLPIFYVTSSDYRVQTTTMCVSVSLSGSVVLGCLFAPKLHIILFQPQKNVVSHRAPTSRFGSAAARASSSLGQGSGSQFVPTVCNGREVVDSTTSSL
- experiment: [35S]GTPγS binding assay (GTPγS-PAM): positive allosteric modulation in presence of glutamate at EC25, membranes from transfected CHO cells
- Assay type: biochemical
- test conditions: in presence of mGluR2 agonist glutamate at predetermined EC25 concentration, averages of duplicate values of 11-concentration response curves, read-out: GTPgS - hR2 PAM pEC50 (converted)
measured attribute: EC50 (nM)
Give the number; nM is assumed, so skip it.

Reference set, count: 3
# compound, measured attribute, result unit, reported value
measured = [
    ("CC1CN(Cc2cc(F)cc(F)c2)CCN1c1ccn(Cc2ccc(OC(F)(F)F)cc2)c(=O)c1C#N (stereo not shown) [2-045]", "EC50", "nM", 501),
    ("CC(C)CCn1ccc(-c2ccc(OCc3cccnc3)cc2)c(C#N)c1=O [1-158]", "EC50", "nM", 501),
    ("CC(C)CCn1ccc(-c2ccc(CCCO)cc2)c(C#N)c1=O [1-095]", "EC50", "nM", 631),
]

Let's switch to this compound now.
Give human mGluR2 receptor (Homo sapiens, UniProt Q14416) EC50 for CCCCn1ccc(OC2CCN(Cc3cccc(C(F)(F)F)c3)CC2)c(C#N)c1=O [3-002]
1260

* * *

- target entity: human mGluR2 receptor (Homo sapiens)
- Construct: expressed in transfected cells; host or cells: CHO cells (membrane preparation)
- experiment: [35S]GTPγS binding assay (GTPγS-PAM): positive allosteric modulation in presence of glutamate at EC25, membranes from transfected CHO cells
- Assay type: biochemical
- test conditions: in presence of mGluR2 agonist glutamate at predetermined EC25 concentration, averages of duplicate values of 11-concentration response curves, read-out: GTPgS - hR2 PAM pEC50 (converted)
True if EC50 is below 200 nM. False if not; exact matches included in False.

Below, 8 compounds whose answers are already recorded.
# compound, category label
records = [
    ("CC(C)CCn1ccc(N2CCC(N3CCc4ccccc4C3)CC2)c(C#N)c1=O", "False"),
    ("CC(C)CCn1ccc(-c2ccc(N3CCCC3=O)cc2)c(C#N)c1=O", "False"),
    ("CC(C)CCn1ccc(N2CCN(CCOc3cccc(C(F)(F)F)c3)CC2)c(C#N)c1=O", "False"),
    ("CCC(C)Oc1ccc(-c2ccn(CCC(C)C)c(=O)c2C#N)cc1F (stereo not shown)", "True"),
    ("CC(C)CCn1ccc(-c2ccc(OCCC3(C)OCCO3)cc2)c(C#N)c1=O", "False"),
    ("CC(C)CCn1ccc(-c2ccc(N3CCC(O)CC3)cc2)c(C#N)c1=O", "False"),
    ("CC(C)CCn1ccc(N2CCN(c3ccc(C#N)cn3)CC2)c(C#N)c1=O", "False"),
    ("CC(C)CCn1ccc(-c2ccc3[nH]ncc3c2)c(C#N)c1=O", "False"),
]

Please check: EC50 for CC(C)Cn1ccc(-c2cccs2)c(C#N)c1=O , strictly under 200 nM or not?
False

Please check: EC50 for CC1CCC(Cn2ccc(-c3ccc(OC(F)(F)F)cc3)c(C#N)c2=O)CC1 (stereo not shown) , strictly under 200 nM or not?
True
